meta.source: paper PMC12332266

system: hiPSC-CM (iCell Cardiomyocytes^2); assay: Intracellular miRNA expression by RT-qPCR in hiPSC-CM pellets after 72-hour treatment; details: 1 µM, 72 h
Counter-ions that a name gives are not always drawn.
Measured Endpoint: hsa-miR-185-3p fold change, intracellular

{"Molecule": "CC(C)C[C@H](NC(=O)[C@H](CCc1ccccc1)NC(=O)CN1CCOCC1)C(=O)N[C@@H](Cc1ccccc1)C(=O)N[C@@H](CC(C)C)C(=O)[C@@]1(C)CO1", "Recorded Measurement": 9.0}
{"Molecule": "Cc1cn(-c2cc(NC(=O)c3ccc(C)c(Nc4nccc(-c5cccnc5)n4)c3)cc(C(F)(F)F)c2)cn1", "Recorded Measurement": 0.3}
{"Molecule": "Cc1nc(Nc2ncc(C(=O)Nc3c(C)cccc3Cl)s2)cc(N2CCN(CCO)CC2)n1", "Recorded Measurement": 1.5}
{"Molecule": "CC(C)C[C@H](NC(=O)CNC(=O)c1cc(Cl)ccc1Cl)B1OC(=O)C(CC(=O)O)(CC(=O)O)O1 [Ixazomib Citrate]", "Recorded Measurement": 0.9}

* * *

test system: hiPSC-CM (iCell Cardiomyocytes^2); experiment: RTCA CardioECR assessment (impedance and electrophysiology parameters); conditions: human, 72 h

{"Compound": "CC(C)C[C@H](NC(=O)[C@H](Cc1ccccc1)NC(=O)c1cnccn1)B(O)O [Bortezomib]", "Field Potential Duration MEC": "0.1 µM"}
{"Compound": "CC(=O)O[C@H]1C(=O)[C@@]2(C)[C@H]([C@H](OC(=O)c3ccccc3)[C@]3(O)C[C@H](OC(=O)[C@H](O)[C@@H](NC(=O)c4ccccc4)c4ccccc4)C(C)=C1C3(C)C)[C@]1(OC(C)=O)CO[C@@H]1C[C@@H]2O [Paclitaxel]", "Field Potential Duration MEC": "3 µM"}
{"Compound": "O=C1c2c(O)ccc(O)c2C(=O)c2c(NCCNCCO)ccc(NCCNCCO)c21 [Mitoxantrone]", "Field Potential Duration MEC": "0.1 µM"}
{"Compound": "N=C(N)c1ccc(OCCCCCOc2ccc(C(=N)N)cc2)cc1 [Pentamidine]", "Field Potential Duration MEC": "1 µM"}
{"Compound": "CC(=O)[C@]1(O)Cc2c(O)c3c(c(O)c2[C@@H](O[C@H]2C[C@H](N)[C@H](O)[C@H](C)O2)C1)C(=O)c1ccccc1C3=O [Idarubicin]", "Field Potential Duration MEC": "0.1 µM"}
{"Compound": "COc1cccc2c1C(=O)c1c(O)c3c(c(O)c1C2=O)C[C@@](O)(C(C)=O)C[C@@H]3O[C@H]1C[C@H](N)[C@H](O)[C@H](C)O1 [Daunorubicin]", "Field Potential Duration MEC": "0.1 µM"}
{"Compound": "Cc1[nH]c(=O)c(C#N)cc1-c1ccncc1 [Milrinone]", "Field Potential Duration MEC": "0.3 µM"}

* * *

system: hiPSC-CM (iCell Cardiomyocytes^2); test: Intracellular miRNA expression by RT-qPCR in hiPSC-CM pellets after 72-hour treatment; settings: Homo sapiens, 72 h, read-out: hsa-miR-126-3p fold change
Here, each record is paired with measured fold induction at 3 µM data.

{"Compound": "CCCN1C[C@H](CSC)C[C@@H]2c3cccc4[nH]cc(c34)C[C@H]21 [Pergolide]", "Tested System": "hiPSC-CM (iCell Cardiomyocytes^2)", "fold induction at 3 µM": 1.1}
{"Compound": "CC(=O)[C@]1(O)Cc2c(O)c3c(c(O)c2[C@@H](O[C@H]2C[C@H](N)[C@H](O)[C@H](C)O2)C1)C(=O)c1ccccc1C3=O", "Tested System": "hiPSC-CM (iCell Cardiomyocytes^2)", "fold induction at 3 µM": 1.1}
{"Compound": "CCC1=C[C@@H]2CN(C1)Cc1c([nH]c3ccccc13)[C@@](C(=O)OC)(c1cc3c(cc1OC)N(C)[C@H]1[C@@](O)(C(=O)OC)[C@H](OC(C)=O)[C@]4(CC)C=CCN5CC[C@]31[C@@H]54)C2", "Tested System": "hiPSC-CM (iCell Cardiomyocytes^2)", "fold induction at 3 µM": 0.2}
{"Compound": "Cc1[nH]c(=O)c(C#N)cc1-c1ccncc1", "Tested System": "hiPSC-CM (iCell Cardiomyocytes^2)", "fold induction at 3 µM": 0.4}
{"Compound": "COc1nc(N)nc2c1ncn2[C@@H]1O[C@H](COP(=O)(N[C@@H](C)C(=O)OCC(C)(C)C)Oc2cccc3ccccc23)[C@@H](O)[C@@]1(C)O (some centres unmarked)", "Tested System": "hiPSC-CM (iCell Cardiomyocytes^2)", "fold induction at 3 µM": 5.2}

* * *

test system: hiPSC-CM (iCell Cardiomyocytes^2); assay: Intracellular miRNA expression by RT-qPCR in hiPSC-CM pellets after 72-hour treatment; conditions: Homo sapiens, 72 h, read-out: hsa-miR-29a-5p fold change

{"Compound": "O=c1[nH]cc(F)c(=O)[nH]1 [5-FluoroUracil]", "fold induction at 1 µM": 0.5}
{"Compound": "CC(=O)[C@]1(O)Cc2c(O)c3c(c(O)c2[C@@H](O[C@H]2C[C@H](N)[C@H](O)[C@H](C)O2)C1)C(=O)c1ccccc1C3=O [Idarubicin]", "fold induction at 1 µM": 1.2}
{"Compound": "CCC1=C[C@@H]2CN(C1)Cc1c([nH]c3ccccc13)[C@@](C(=O)OC)(c1cc3c(cc1OC)N(C)[C@H]1[C@@](O)(C(=O)OC)[C@H](OC(C)=O)[C@]4(CC)C=CCN5CC[C@]31[C@@H]54)C2 [Vinorelbine]", "fold induction at 1 µM": 0.2}
{"Compound": "CCCN1C[C@H](CSC)C[C@@H]2c3cccc4[nH]cc(c34)C[C@H]21 [Pergolide]", "fold induction at 1 µM": 0.2}
{"Compound": "COc1nc(N)nc2c1ncn2[C@@H]1O[C@H](COP(=O)(N[C@@H](C)C(=O)OCC(C)(C)C)Oc2cccc3ccccc23)[C@@H](O)[C@@]1(C)O (some centres unmarked) [BMS-986094]", "fold induction at 1 µM": 1.2}

* * *

Here, each record is paired with measured fold induction at 0.3 µM data.
tested on: hiPSC-CM (iCell Cardiomyocytes^2); assay: Intracellular miRNA expression by RT-qPCR in hiPSC-CM pellets after 72-hour treatment; conditions: Homo sapiens, 72 h, read-out: hsa-miR-7-5p fold change
Measured Endpoint: fold induction at 0.3 µM

{"Structure String": "CCCCCNC(=N)N/N=C/c1c[nH]c2ccc(OC)cc12", "Recorded Measurement": 2}
{"Structure String": "CCN[C@@H](C)Cc1cccc(C(F)(F)F)c1", "Recorded Measurement": 1}
{"Structure String": "O=c1[nH]cc(F)c(=O)[nH]1", "Recorded Measurement": 0.7}
{"Structure String": "Cc1[nH]c(=O)c(C#N)cc1-c1ccncc1", "Recorded Measurement": 1.1}

* * *

test system: hiPSC-CM (iCell Cardiomyocytes^2); assay: RTCA CardioECR assessment (impedance and electrophysiology parameters); settings: human, 72 h

{"Molecule": "COc1cccc2c1C(=O)c1c(O)c3c(c(O)c1C2=O)C[C@@](O)(C(=O)CO)C[C@@H]3O[C@H]1C[C@H](N)[C@@H](O)[C@H](C)O1 [Epirubicin]", "RTCA, MEC (BR)": "0.3 µM (CI, BR (Q))"}
{"Molecule": "COc1cccc2c1C(=O)c1c(O)c3c(c(O)c1C2=O)C[C@@](O)(C(C)=O)C[C@@H]3O[C@H]1C[C@H](N)[C@H](O)[C@H](C)O1", "RTCA, MEC (BR)": "0.1 µM (CI, BR)"}
{"Molecule": "CC(=O)[C@]1(O)Cc2c(O)c3c(c(O)c2[C@@H](O[C@H]2C[C@H](N)[C@H](O)[C@H](C)O2)C1)C(=O)c1ccccc1C3=O", "RTCA, MEC (BR)": "0.1 µM (CI, BR)"}

* * *

system: hiPSC-CM (iCell Cardiomyocytes^2); assay: RTCA CardioECR assessment (impedance and electrophysiology parameters); conditions: human, 72 h
Here, each record is paired with measured RTCA, MEC (BR) data.

{"Structure String": "N=C(N)c1ccc(OCCCCCOc2ccc(C(=N)N)cc2)cc1", "RTCA, MEC (BR)": "3 µM (CI, BR)"}
{"Structure String": "O=C1c2c(O)ccc(O)c2C(=O)c2c(NCCNCCO)ccc(NCCNCCO)c21", "RTCA, MEC (BR)": "0.1 µM (CI, BR)"}
{"Structure String": "C#Cc1cccc(Nc2ncnc3cc(OCCOC)c(OCCOC)cc23)c1", "RTCA, MEC (BR)": "0.77 µM (BR)"}
